src = the supplement of paper PMC11732987

assayed system: OTUD7B (UniProt Q6GQQ9)
Sequence (Q6GQQ9 whole entry, the tested form may be a part): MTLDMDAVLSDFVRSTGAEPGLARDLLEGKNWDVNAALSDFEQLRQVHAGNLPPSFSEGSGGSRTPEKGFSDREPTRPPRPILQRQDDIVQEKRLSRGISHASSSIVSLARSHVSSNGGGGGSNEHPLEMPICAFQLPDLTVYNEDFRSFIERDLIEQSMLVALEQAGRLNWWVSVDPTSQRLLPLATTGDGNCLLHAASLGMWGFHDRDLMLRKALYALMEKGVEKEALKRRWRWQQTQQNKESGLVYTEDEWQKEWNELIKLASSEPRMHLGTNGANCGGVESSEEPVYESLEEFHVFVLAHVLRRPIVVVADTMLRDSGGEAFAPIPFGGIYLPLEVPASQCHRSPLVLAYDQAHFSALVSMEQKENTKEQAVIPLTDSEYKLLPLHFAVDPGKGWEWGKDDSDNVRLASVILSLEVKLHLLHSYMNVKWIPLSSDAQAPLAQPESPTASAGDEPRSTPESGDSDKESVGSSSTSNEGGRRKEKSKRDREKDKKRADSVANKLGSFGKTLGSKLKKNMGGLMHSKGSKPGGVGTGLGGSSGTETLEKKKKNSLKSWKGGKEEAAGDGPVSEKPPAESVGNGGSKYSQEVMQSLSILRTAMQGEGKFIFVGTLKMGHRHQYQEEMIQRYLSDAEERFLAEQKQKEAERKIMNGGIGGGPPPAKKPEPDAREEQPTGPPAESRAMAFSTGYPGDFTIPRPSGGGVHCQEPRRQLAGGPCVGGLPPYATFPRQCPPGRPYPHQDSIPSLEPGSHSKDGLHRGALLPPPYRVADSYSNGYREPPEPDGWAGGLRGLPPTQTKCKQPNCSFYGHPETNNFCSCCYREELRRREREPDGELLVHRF
measurement protocol: log2 ratio of Biotin-Ahx-Ub-VS probe labelling (fragment/DMSO); higher = less target engagement (more negative = stronger competition), active = hit call of the paper (q ≤ 0.05, log2 ratio ≤ -1)
protocol conditions: compound concentration: 200 uM; treatment time: 3 h
Attribute: log2 ratio of Biotin-Ahx-Ub-VS probe labelling
Could you respond with only the numeric value?

Below: 2 compounds and their reported log2 ratio of Biotin-Ahx-Ub-VS probe labelling.
Cl.O=C(CCl)NCCN1CCc2ccccc21	-0.675
O=C(CCl)NC1(c2ccc3c(c2)OCCO3)CCCC1	-0.638

[ask] Consider the compound Cl.O=C(CCl)N1CCN(Cc2ccccc2)CC1 and give its recorded log2 ratio of Biotin-Ahx-Ub-VS probe labelling.
[reply] -0.1
